Recorded PDI values for a group of compounds are listed next.
assay: Dimensions (size, PDI) of DNPs co-assembled from IAJDs and Luc-mRNA by DLS; assay type: physicochemical; conditions: Table 14; DNPs, IAJD 4 mg/mL + Luc-mRNA 0.10 mg/mL, acetate buffer pH 4.0
Reply with the value as a number alone.

1) CCCCCCCCCCCCCCCCCCOc1cc(COC(=O)CCCN2CCN(CCO)CC2)cc(OCCCCCCCCCCCCCCCCCC)c1 0.571
2) CCCCCCCCCCCCOCC(COCCCCCCCCCCCC)(COCCCCCCCCCCCC)COC(=O)CCCN1CCN(CCO)CC1 0.430
3) CCCCCCCCCCCCOc1cc(COC(=O)CCN2CCN(C)CC2)cc(OCCCCCCCCCCCC)c1 0.303

Proceeding to the next compound to report its PDI.
Request: Can you look up the measured PDI of CCCCCCCCOc1cc(COC(=O)CCCN2CCN(CCO)CC2)cc(OCCCCCCCC)c1 for me?
Result: 0.467

Cited source for all entries: patent US20240252677A1
